tested on: trachea; experiment: Effect on acetylcholine-induced contraction of isolated trachea strips (bronchodilation), Pharmacological Experiment 4; set-up: species or system guinea pig (Hartley); settings: Cavia porcellus; acetylcholine 10^-6 M contraction; papaverine 10^-4 M response taken as 100%
IC50 values for the molecules below.
TEST READOUT: IC50 (µM)

INSERT INTO assay_data (molecule, experimental_result) VALUES
  ('CC(C)(N)[C@H]1CC[C@H](C(=O)Nc2ccnc3[nH]ncc23)CC1', 0.31),
  ('C[C@@H](N)[C@H]1CC[C@H](C(=O)Nc2ccnc3[nH]ccc23)CC1', 0.06),
  ('C[C@@H](N)[C@H]1CC[C@H](C(=O)Nc2ccnc3[nH]ncc23)CC1', 0.17),
  ('CC(C)(N)[C@H]1CC[C@H](C(=O)Nc2ccnc3[nH]ccc23)CC1', 0.09);
